- TESTED_SYSTEM: HUα2 P63A (Escherichia coli (MG1655-derived …, UniProt P0ACF0 1-90, P63A))
- EXPERIMENT_NOTES: fluorescence polarization
QUANTITY_NAME: pKd
Numbers only, as −log10 of the molar value.

// query Fill in the blank: the reported pKd of cruciform DNA (structured_DNA) DNA 1: CCTAGCAAGGGGCTGCTACCTTTGGTAGCAGCCTGAGCGGTGG DNA 2: CCACCGCTCAACTCAACTGCTTTGCAGTTGAGTCCTTGCTAGG is ____.
// result 6.45
